Each entry below carries its recorded apparent KD of MS2 coat protein.
System: MS2 coat protein
Test: apparent KD of MS2 coat protein; designed switch direction (-1 OFF switch, 1 ON switch): -1; higher = weaker reporter binding
Conditions: input ligand: FMN 200 uM
// return numeric value only (unit: nM, not printed)

Previously resolved entries follow.
Sequence code	apparent KD of MS2 coat protein (nM)
UUGGUUGUGGUAGGAUAUCCGUUGGAAACCGUCGGAGAAGGACCACAGUCACUGGGUCUUUGUCUGGUGGAGUGGAAGAACCAU [pwkr exNG1 F6.20] (Eterna round: R96, puzzle: Exclusion NG 1)	283
UUGUAGGGAGGAUAUCAGAAGCUCCACAUGAGGAUCACCCAUGUAGCCGCUGCUGGAUUCUGAGAAGGCUUGGGUU [Eternabot (L2) Solution 8] (Eterna round: R97, puzzle: Exclusion 5)	58.8

Next, consider the following sequence.
Exam item: Record UAUUAGCAAGCAAAUGGGUACAUGAGGAUCACCCAUGUGCUCGUCUUAUAAGGUACUGUGACGAAAGUCACGGUCCC [mod--Eli7] (Eterna round: R97, puzzle: Sensor, turn-off variant 1) : what is its apparent KD of MS2 coat protein with MS2 coat protein?
Marked response: 23
